SYSTEM TESTED: plasma purified human antithrombin III (AT-III), as complex with unfractionated heparin
ASSAY: ratio of K0.5 to Catalyst Biosciences WT FIXa, AT-III/UFH inhibition
METRIC: K0.5-mut/K0.5-wt
Just the number, please, no unit after it.

Value of measured K0.5-mut/K0.5-wt for the entry FIXa-Y155F/K228N/K247N/N249S (protein) chain 1: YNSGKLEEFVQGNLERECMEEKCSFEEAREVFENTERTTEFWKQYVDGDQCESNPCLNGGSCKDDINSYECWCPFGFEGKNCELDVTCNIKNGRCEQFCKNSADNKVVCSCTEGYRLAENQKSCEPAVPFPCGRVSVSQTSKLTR chain 2: VVGGEDAKPGQFPWQVVLNGKVDAFCGGSIVNEKWIVTAAHCVETGVNITVVAGEHNIEETEHTEQNRSVIRIIPHHNYNAAINKYNHDIALLELDEPLVLNSYVTPICIADKEYTNIFLKFGSGYVSGWGRVFHKGRSALVLQYLRVPLVDRATCLRSTKFTIYNNMFCAGFHEGGRDSCQGDSGGPHVTEVEGTSFLTGIISWGEECAMKGKYGIYTKVSRYVNWIKEKTKLT : 1.4

The values you see were collected from patent US20210238260.
